Each recorded value in this set is attributed to patent US10159265B2.

Test system: methanogenic (archea) populations
assay_explanation: Methane production in "in vitro" rumen fluid culture
Type: cell-based, calves
run_conditions: Exp 1; average over doses and incubation times
Marks after values point to notes of the source that are not given here.
The following molecules are shown together with reported Average methane production values.
experimental_endpoint: Average methane production

INSERT INTO assay_data (smi, result) VALUES
  ('COc1ccc([C@@H]2CC(=O)c3c(O)cc(O[C@@H]4O[C@H](CO[C@@H]5O[C@@H](C)[C@H](O)[C@@H](O)[C@H]5O)[C@@H](O)[C@H](O)[C@H]4O)cc3O2)cc1O', '28.42^cd'),
  ('C[C@@H]1O[C@@H](O[C@H]2[C@H](Oc3cc(O)c4c(c3)O[C@H](c3ccc(O)c(O)c3)CC4=O)O[C@H](CO)[C@@H](O)[C@@H]2O)[C@H](O)[C@H](O)[C@H]1O', '38.40^a'),
  ('COc1ccc([C@@H]2CC(=O)c3c(O)cc(O[C@@H]4O[C@H](CO)[C@@H](O)[C@H](O)[C@H]4O[C@@H]4O[C@@H](C)[C@H](O)[C@@H](O)[C@H]4O)cc3O2)cc1', '27.04^de'),
  ('C[C@@H]1O[C@@H](OC[C@H]2O[C@@H](Oc3cc(O)c4c(c3)O[C@H](c3ccc(O)cc3)CC4=O)[C@H](O)[C@@H](O)[C@@H]2O)[C@H](O)[C@H](O)[C@H]1O', '27.42^de');

* * *

System: "in vitro" ruminal fluid cultures
assay_explanation: Ammonia (N-NH3) concentration in "in vitro" ruminal fluid cultures
Type: cell-based, calves
run_conditions: average over incubation times
experimental_endpoint: N-NH3 concentration, average (M) (mg/L)

INSERT INTO assay_data (smi, study_system, experimental_endpoint, quantitative_result) VALUES
  ('C[C@@H]1O[C@@H](OC[C@H]2O[C@@H](Oc3cc(O)c4c(c3)O[C@H](c3ccc(O)cc3)CC4=O)[C@H](O)[C@@H](O)[C@@H]2O)[C@H](O)[C@H](O)[C@H]1O', '"in vitro" ruminal fluid cultures', 'N-NH3 concentration, average (M)', 212.66),
  ('C[C@@H]1O[C@@H](O[C@H]2[C@H](Oc3cc(O)c4c(c3)O[C@H](c3ccc(O)c(O)c3)CC4=O)O[C@H](CO)[C@@H](O)[C@@H]2O)[C@H](O)[C@H](O)[C@H]1O', '"in vitro" ruminal fluid cultures', 'N-NH3 concentration, average (M)', 227.84),
  ('COc1ccc([C@@H]2CC(=O)c3c(O)cc(O[C@@H]4O[C@H](CO[C@@H]5O[C@@H](C)[C@H](O)[C@@H](O)[C@H]5O)[C@@H](O)[C@H](O)[C@H]4O)cc3O2)cc1O', '"in vitro" ruminal fluid cultures', 'N-NH3 concentration, average (M)', 220.15),
  ('COc1ccc([C@@H]2CC(=O)c3c(O)cc(O[C@@H]4O[C@H](CO)[C@@H](O)[C@H](O)[C@H]4O[C@@H]4O[C@@H](C)[C@H](O)[C@@H](O)[C@H]4O)cc3O2)cc1O', '"in vitro" ruminal fluid cultures', 'N-NH3 concentration, average (M)', 219.18),
  ('C[C@@H]1O[C@@H](O[C@H]2[C@H](Oc3cc(O)c4c(c3)O[C@H](c3ccc(O)cc3)CC4=O)O[C@H](CO)[C@@H](O)[C@@H]2O)[C@H](O)[C@H](O)[C@H]1O', '"in vitro" ruminal fluid cultures', 'N-NH3 concentration, average (M)', 219.57),
  ('COc1ccc([C@@H]2CC(=O)c3c(O)cc(O[C@@H]4O[C@H](CO)[C@@H](O)[C@H](O)[C@H]4O[C@@H]4O[C@@H](C)[C@H](O)[C@@H](O)[C@H]4O)cc3O2)cc1', '"in vitro" ruminal fluid cultures', 'N-NH3 concentration, average (M)', 209.16);
